# pIC50 annotations
SYSTEM_NAME: human mGluR5d (Homo sapiens, UniProt P41594)
Construct: The cells are kept under hygromycin B and Zeocin selection; The separate IP3 assay names GHEK cells stably expressing human mGluR5d
Sequence (P41594 21-942 isoform P41594-3 limits assumed): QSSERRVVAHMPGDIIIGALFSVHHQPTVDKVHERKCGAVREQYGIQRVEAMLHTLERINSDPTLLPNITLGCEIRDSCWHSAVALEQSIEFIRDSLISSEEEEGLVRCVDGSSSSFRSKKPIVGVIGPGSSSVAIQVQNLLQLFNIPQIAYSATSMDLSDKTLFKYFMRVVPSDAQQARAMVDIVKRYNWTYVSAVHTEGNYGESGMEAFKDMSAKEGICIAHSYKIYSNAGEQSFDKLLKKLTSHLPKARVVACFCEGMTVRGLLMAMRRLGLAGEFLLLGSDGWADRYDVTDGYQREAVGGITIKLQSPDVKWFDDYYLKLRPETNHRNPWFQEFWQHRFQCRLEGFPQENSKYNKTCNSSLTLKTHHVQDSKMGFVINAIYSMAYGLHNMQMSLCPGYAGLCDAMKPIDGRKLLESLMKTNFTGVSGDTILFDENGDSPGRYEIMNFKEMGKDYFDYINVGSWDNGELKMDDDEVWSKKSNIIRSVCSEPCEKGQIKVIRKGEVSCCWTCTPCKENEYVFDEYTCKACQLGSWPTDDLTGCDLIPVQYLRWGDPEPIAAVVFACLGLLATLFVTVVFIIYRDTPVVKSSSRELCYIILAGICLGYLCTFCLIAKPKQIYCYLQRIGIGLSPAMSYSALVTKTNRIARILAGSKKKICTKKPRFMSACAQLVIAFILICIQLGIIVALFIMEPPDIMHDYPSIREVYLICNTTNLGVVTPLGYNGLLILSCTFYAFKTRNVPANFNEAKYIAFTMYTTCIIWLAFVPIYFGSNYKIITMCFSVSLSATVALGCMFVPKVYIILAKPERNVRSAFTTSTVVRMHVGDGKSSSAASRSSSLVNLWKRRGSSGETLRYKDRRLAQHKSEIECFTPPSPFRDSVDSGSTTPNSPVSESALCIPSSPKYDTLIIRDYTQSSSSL
ASSAY_REMARKS: FLIPR assay, mobilization of intracellular calcium in cells expressing human mGluR5d
RUN_CONDITIONS: antagonism of agonist response, read-out: FLIPR hmGluR5d
Scale: negative log10 of molar concentration, which is what pIC50 denotes.

Cc1cccc(-c2cc([C@H](C)N(C)c3nnc(-c4cn[nH]c(=O)c4)n3C)no2)c1 [Example 4.11]    7.37
Cn1c(-c2cn[nH]c(=O)c2)nnc1N(Cc1cc(-c2cccc(Cl)c2)on1)C1CC1 [Example 4.1]    7.39
CCN(Cc1noc(-c2cccc(C)c2)n1)c1nnc(-c2ccn(C)c(=O)c2)n1C [Example 8.6]    7.12
CCN(Cc1noc(-c2cccc(Cl)c2)n1)c1nnc(-c2cn[nH]c(=O)c2)n1C [Example 8.4]    7.37

Pending molecule:
Prompt: // returns reported pIC50 for input CN(Cc1cc(-c2cccc(Cl)c2)on1)c1nnc(-c2cc(=O)[nH]cn2)n1C1CC1 [Example 4.5]
Response: 7.11

* * *

SYSTEM_NAME: human mGluR5d (Homo sapiens, UniProt P41594)
Construct: The cells are kept under hygromycin B and Zeocin selection; The separate IP3 assay names GHEK cells stably expressing human mGluR5d
ASSAY_REMARKS: FLIPR assay, mobilization of intracellular calcium in cells expressing human mGluR5d
RUN_CONDITIONS: antagonism of agonist response, read-out: FLIPR hmGluR5d
PROPERTY_LABEL: pIC50
Keep it numeric: pIC50 is minus log10 of the concentration in mol/L.

Some compounds with recorded pIC50:
CCN(Cc1cc(-c2cccc(Cl)c2)on1)c1nnc(-c2cc[nH]c(=O)c2)n1C    7.51
CCn1c(-c2cc(=O)[nH]cn2)nnc1N(C)Cc1cc(-c2cccc(C)c2)on1    7.28
CCN(Cc1cc(-c2cccc(Cl)c2)on1)c1nnc(-c2ccn(C)c(=O)c2)n1C    7.19
CC(c1cc(-c2cccc(Cl)c2)on1)N(c1nnc(-c2cn[nH]c(=O)c2)n1C)C1CC1 (single isomer, unassigned; (-)) [(−) 5.2]    6.95
CN(Cc1cc(-c2cccc(Cl)c2)on1)c1nnc(-c2cncnc2)n1C    7.70

Prompt: For the compound shown here, CN(Cc1cc(-c2cccc(Cl)c2)on1)c1nnc(-c2ccnnc2)n1C , give the reported pIC50.
Response: 8.00

* * *

ASSAY_REMARKS: Determination of brain to plasma ratio in rat
Format: in vivo
RUN_CONDITIONS: brain and plasma, female Sprague Dawley rats, read-out: Brain/Plasma Ratio of compound in Rat
PROPERTY_LABEL: Kp

Worked examples follow.
CCN(Cc1noc(-c2cccc(C)c2)n1)c1nnc(-c2ccn(C)c(=O)c2)n1C    < 0.01
CCN(Cc1cc(-c2cccc(Cl)c2)on1)c1nnc(-c2cc[nH]c(=O)c2)n1C    0.02
CN(Cc1cc(-c2cccc(Cl)c2)on1)c1nnc(-c2ccnnc2)n1C    0.03
CC(c1cc(-c2cccc(Cl)c2)on1)N(c1nnc(-c2cn[nH]c(=O)c2)n1C)C1CC1 (single isomer, unassigned; (-)) [(−) 5.2]    < 0.01
CCN(Cc1cc(-c2cccc(C)c2)on1)c1nnc(-c2cc[nH]c(=O)c2)n1C    0.035

Prompt: Give its Kp value. Item: CC(c1cc(-c2cccc(Cl)c2)on1)N(C)c1nnc(-c2ccn(C)c(=O)c2)n1C (single isomer, unassigned; (-)) [(−) 5.1]
Response: < 0.01

Prompt: What Kp value was documented for this compound, Cc1cccc(-c2cc([C@H](C)N(C)c3nnc(-c4ccn(C)c(=O)c4)n3C)no2)c1 ?
Response: < 0.01
